thermal stability score values, listed per item
System: HeLa Kyoto;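 further: synchronized HeLa Kyoto cells, proteins quantified by TMT10plex mass spectrometry, three biological replicates, mitosis taken 0.5 h after nocodazole release, G1/S directly after double thymidine block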
EXPERIMENT DESCRIPTION: thermal stability score vs G1/S (z-score of summed log2 fold changes over temperatures); higher = more thermally stable than in G1/S
REPORTED CONDITIONS: cell cycle stage: early G1 (4.5 h after nocodazole release)
The answer should be a number; do not append a unit.

Sample answers from the record:
{"SUBSTANCE": "MSSSLRPGPSRWRRAASIVLAAGWSRPETATPPSRPPPAEGFRLLLLQRSPHQGFMPGAHVFSGGVLDAADRSADWLGLFAPHHGPPRFGLGPAPFSRTAFPSLPDTDDHKTDNTGTLPEDVAFRICAVREAFEEAGVLLLRPRTSPPGPAPGPGLALEPPPGLASWRDRVRQDPRHFLRLCAHLDCTPDIWALHNWSAWLTPFLRGTTRRFDTAFFLCCLREPPPVYPDLAEVVGYQWSSPSEATESFLSKEIWLPPPQFYEVRRLANFASLSDLHKFCLGRALEGLERWLPIILLTADGMVHLLPGDELYLEDSDFLENLMSTEKKTEEIMKEGKQFHRIVTYHRHLYDIHVTVQPKYKHVYPKNSVVRKSHL [NUDT19]", "RESULT VALUE": -1.25}
{"SUBSTANCE": "MSGGLLKALRSDSYVELSQYRDQHFRGDNEEQEKLLKKSCTLYVGNLSFYTTEEQIYELFSKSGDIKKIIMGLDKMKKTACGFCFVEYYSRADAENAMRYINGTRLDDRIIRTDWDAGFKEGRQYGRGRSGGQVRDEYRQDYDAGRGGYGKLAQNQ [NCBP2]", "RESULT VALUE": -0.145}

Data request: Which value of thermal stability score has been reported for RALGAPB in the records?
Data returned: -1.55

Data request: Which value of thermal stability score has been reported for MAEERPGAWFGFGFCGFGQELGSGRGRQVHSPSPLRAGVDICRVSASWSYTAFVTRGGRLELSGSASGAAGRCKDAWASEGLLAVLRAGPGPEALLQVWAAESALRGEPLWAQNVVPEAEGEDDPAGEAQAGRLPLLPCARAYVSPRAPFYRPLAPELRARQLELGAEHALLLDAAGQVFSWGGGRHGQLGHGTLEAELEPRLLEALQGLVMAEVAAGGWHSVCVSETGDIYIWGWNESGQLALPTRNLAEDGETVAREATELNEDGSQVKRTGGAEDGAPAPFIAVQPFPALLDLPMGSDAVKASCGSRHTAVVTRTGELYTWGWGKYGQLGHEDTTSLDRPRRVEYFVDKQLQVKAVTCGPWNTYVYAVEKGKS [RCCD1] in the records?
Data returned: -0.546

Data request: Which value of thermal stability score has been reported for MFKVIQRSVGPASLSLLTFKVYAAPKKDSPPKNSVKVDELSLYSVPEGQSKYVEEARSQLEESISQLRHYCEPYTTWCQETYSQTKPKMQSLVQWGLDSYDYLQNAPPGFFPRLGVIGFAGLIGLLLARGSKIKKLVYPPGFMGLAASLYYPQQAIVFAQVSGERLYDWGLRGYIVIEDLWKENFQKPGNVKNSPGTK [APOO] in the records?
Data returned: -1.86

Data request: Which value of thermal stability score has been reported for MFLVNSFLKGGGGGGGGGGGLGGGLGNVLGGLISGAGGGGGGGGGGGGGGGGGGGGTAMRILGGVISAISEAAAQYNPEPPPPRTHYSNIEANESEEVRQFRRLFAQLAGDDMEVSATELMNILNKVVTRHPDLKTDGFGIDTCRSMVAVMDSDTTGKLGFEEFKYLWNNIKRWQAIYKQFDTDRSGTICSSELPGAFEAAGFHLNEHLYNMIIRRYSDESGNMDFDNFISCLVRLDAMFRAFKSLDKDGTGQIQVNIQEWLQLTMYS [CAPNS1] in the records?
Data returned: 1.02

Data request: Which value of thermal stability score has been reported for MNPIVVVHGGGAGPISKDRKERVHQGMVRAATVGYGILREGGSAVDAVEGAVVALEDDPEFNAGCGSVLNTNGEVEMDASIMDGKDLSAGAVSAVQCIANPIKLARLVMEKTPHCFLTDQGAAQFAAAMGVPEIPGEKLVTERNKKRLEKEKHEKGAQKTDCQKNLGTVGAVALDCKGNVAYATSTGGIVNKMVGRVGDSPCLGAGGYADNDIGAVSTTGHGESILKVNLARLTLFHIEQGKTVEEAADLSLGYMKSRVKGLGGLIVVSKTGDWVAKWTSTSMPWAAAKDGKLHFGIDPDDTTITDLP [ASRGL1] in the records?
Data returned: -1.89

Data request: Which value of thermal stability score has been reported for MEDPTLYIVERPLPGYPDAEAPEPSSAGAQAAEEPSGAGSEELIKSDQVNGVLVLSLLDKIIGAVDQIQLTQAQLEERQAEMEGAVQSIQGELSKLGKAHATTSNTVSKLLEKVRKVSVNVKTVRGSLERQAGQIKKLEVNEAELLRRRNFKVMIYQDEVKLPAKLSISKSLKESEALPEKEGEELGEGERPEEDAAALELSSDEAVEVEEVIEESRAERIKRSGLRRVDDFKKAFSKEKMEKTKVRTRENLEKTRLKTKENLEKTRHTLEKRMNKLGTRLVPAERREKLKTSRDKLRKSFTPDHVVYARSKTAVYKVPPFTFHVKKIREGQVEVLKATEMVEVGADDDEGGAERGEAGDLRRGSSPDVHALLEITEESDAVLVDKSDSD [PTRF] in the records?
Data returned: -3.64

Data request: Which value of thermal stability score has been reported for MAASVEQREGTIQVQGQALFFREALPGSGQARFSVLLLHGIRFSSETWQNLGTLHRLAQAGYRAVAIDLPGLGHSKEAAAPAPIGELAPGSFLAAVVDALELGPPVVISPSLSGMYSLPFLTAPGSQLPGFVPVAPICTDKINAANYASVKTPALIVYGDQDPMGQTSFEHLKQLPNHRVLIMKGAGHPCYLDKPEEWHTGLLDFLQGLQ [ABHD14B] in the records?
Data returned: -0.635

Data request: Which value of thermal stability score has been reported for MSRLLPLLRSRTARSLRPGPAAAAAPRPPSWCCCGRGLLALAPPGGLPGGPRRLGTHPKKEPMEALNTAQGARDFIYSLHSTERSCLLKELHRFESIAIAQEKLEAPPPTPGQLRYVFIHNAIPFIGFGFLDNAIMIVAGTHIEMSIGIILGISTMAAAALGNLVSDLAGLGLAGYVEALASRLGLSIPDLTPKQVDMWQTRLSTHLGKAVGVTIGCILGMFPLIFFGGGEEDEKLETKS [TMEM65] in the records?
Data returned: 0.563

Data request: Which value of thermal stability score has been reported for MEHFDASLSTYFKALLGPRDTRVKGWFLLDNYIPTFICSVIYLLIVWLGPKYMRNKQPFSCRGILVVYNLGLTLLSLYMFCELVTGVWEGKYNFFCQGTRTAGESDMKIIRVLWWYYFSKLIEFMDTFFFILRKNNHQITVLHVYHHASMLNIWWFVMNWVPCGHSYFGATLNSFIHVLMYSYYGLSSVPSMRPYLWWKKYITQGQLLQFVLTIIQTSCGVIWPCTFPLGWLYFQIGYMISLIALFTNFYIQTYNKKGASRRKDHLKDHQNGSMAAVNGHTNSFSPLENNVKPRKLRKD [ELOVL5] in the records?
Data returned: -0.682
